- TESTED TARGET: MKK7β(h) (Homo sapiens)
- Sequence (O14733 whole entry): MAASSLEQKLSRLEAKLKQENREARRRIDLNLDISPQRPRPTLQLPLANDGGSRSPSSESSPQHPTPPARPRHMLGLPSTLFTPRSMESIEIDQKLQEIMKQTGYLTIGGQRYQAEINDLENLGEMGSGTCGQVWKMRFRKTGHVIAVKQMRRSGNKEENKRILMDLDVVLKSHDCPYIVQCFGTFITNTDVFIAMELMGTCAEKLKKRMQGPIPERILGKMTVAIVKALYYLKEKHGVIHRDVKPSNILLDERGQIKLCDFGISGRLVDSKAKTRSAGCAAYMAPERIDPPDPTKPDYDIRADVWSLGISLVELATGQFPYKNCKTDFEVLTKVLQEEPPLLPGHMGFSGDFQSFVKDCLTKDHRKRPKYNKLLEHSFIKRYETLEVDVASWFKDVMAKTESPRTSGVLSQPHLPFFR
- PROCEDURE DETAILS: Protein kinase selectivity panel
- Type: biochemical
- ASSAY SETUP: 1.0 μM compound, 10 μM ATP
- Experimental: Protein kinase selectivity assays were performed as described in the scientific literature (Davies, S. P., et al., Biochem. J. 2000, 351, 95-105). Briefly, protein kinases were assayed for their ability to phosphorylate the appropriate peptide/protein substrates in the presence of 1.0 μM compound. Assays were done using 10 μM ATP and were linear with respect to time. […]
PROPERTY LABEL: Activity at Protein Kinase Assays (% of control), MKK7β(h)

Below: 3 compounds and their reported Activity at Protein Kinase Assays (% of control), MKK7β(h).
Req: What value of Activity at Protein Kinase Assays (% of control), MKK7β(h) has been reported for the following compound? `O=C1NC(=O)C2=C1c1cn(c3ccccc13)CCCc1ccc(c(N3CCCC3)n1)CCCn1cc2c2ccccc21`
Resp: 85 % of control

Req: What value of measured Activity at Protein Kinase Assays (% of control), MKK7β(h) is listed for `CN(C)c1cc2cc(n1)CCCn1cc(c3ccccc31)C1=C(C(=O)NC1=O)c1cn(c3ccccc13)CCC2` ?
Resp: 78 % of control

Req: # query: Activity at Protein Kinase Assays (% of control), MKK7β(h) of entry `O=C1NC(=O)C2=C1c1cn(c3ccccc13)CCCc1cc(nc(N3CCCC3)c1)CCCn1cc2c2ccccc21`
Resp: 97 % of control

Next compound, Activity at Protein Kinase Assays (% of control), MKK7β(h) to be filled in.
Req: // query Activity at Protein Kinase Assays (% of control), MKK7β(h) value for entry `CN(C)c1nc2ccc1CCCCn1cc(c3ccccc31)C1=C(C(=O)NC1=O)c1cn(c3ccccc13)CCC2`
Resp: 88 % of control

* * *

- TESTED TARGET: EphB2(h) (Homo sapiens, UniProt P29323)
- Sequence (P29323 19-1055): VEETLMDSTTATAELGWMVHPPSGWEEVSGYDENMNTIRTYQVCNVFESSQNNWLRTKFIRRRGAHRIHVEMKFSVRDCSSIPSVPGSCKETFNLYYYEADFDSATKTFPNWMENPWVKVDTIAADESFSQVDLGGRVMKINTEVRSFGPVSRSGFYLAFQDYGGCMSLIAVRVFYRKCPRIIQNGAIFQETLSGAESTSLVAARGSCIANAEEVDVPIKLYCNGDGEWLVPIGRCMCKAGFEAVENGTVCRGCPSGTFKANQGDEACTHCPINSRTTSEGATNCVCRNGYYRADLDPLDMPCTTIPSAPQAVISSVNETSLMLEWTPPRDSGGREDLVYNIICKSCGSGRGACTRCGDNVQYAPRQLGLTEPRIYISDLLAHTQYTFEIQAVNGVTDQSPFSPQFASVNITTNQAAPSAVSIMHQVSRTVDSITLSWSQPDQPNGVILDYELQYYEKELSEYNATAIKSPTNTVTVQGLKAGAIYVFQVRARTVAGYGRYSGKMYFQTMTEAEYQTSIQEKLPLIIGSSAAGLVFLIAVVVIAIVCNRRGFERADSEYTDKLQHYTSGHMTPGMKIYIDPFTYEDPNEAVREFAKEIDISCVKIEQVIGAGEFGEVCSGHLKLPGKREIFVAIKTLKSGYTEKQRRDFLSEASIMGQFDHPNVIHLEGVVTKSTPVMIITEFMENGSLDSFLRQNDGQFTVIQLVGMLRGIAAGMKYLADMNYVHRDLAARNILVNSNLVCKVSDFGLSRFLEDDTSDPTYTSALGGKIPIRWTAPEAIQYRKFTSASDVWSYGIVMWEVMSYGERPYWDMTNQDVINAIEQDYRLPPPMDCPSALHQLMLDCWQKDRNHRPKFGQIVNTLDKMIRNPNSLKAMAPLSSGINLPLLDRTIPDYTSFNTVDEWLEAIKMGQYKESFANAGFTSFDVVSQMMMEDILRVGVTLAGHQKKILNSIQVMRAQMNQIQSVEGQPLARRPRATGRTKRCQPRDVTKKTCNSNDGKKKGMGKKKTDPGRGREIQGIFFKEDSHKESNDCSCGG
- PROCEDURE DETAILS: Protein kinase selectivity panel
- Format: biochemical
- ASSAY SETUP: 1.0 μM compound, 10 μM ATP
- Method: Protein kinase selectivity assays were performed as described in the scientific literature (Davies, S. P., et al., Biochem. J. 2000, 351, 95-105). Briefly, protein kinases were assayed for their ability to phosphorylate the appropriate peptide/protein substrates in the presence of 1.0 μM compound. Assays were done using 10 μM ATP and were linear with respect to time. […]
PROPERTY LABEL: Activity at Protein Kinase Assays (% of control), EphB2(h)

Example cases with answers are listed next.
Req: Value lookup for Activity at Protein Kinase Assays (% of control), EphB2(h); key = `O=C1NC(=O)C2=C1c1cn(c3ccccc13)CCCc1ccc(c(N3CCCC3)n1)CCCn1cc2c2ccccc21`
Resp: 114 % of control

Req: Which value of Activity at Protein Kinase Assays (% of control), EphB2(h) has been reported for `O=C1NC(=O)C2=C1c1cn(c3ccccc13)CCCc1cc(nc(N3CCCC3)c1)CCCn1cc2c2ccccc21` in the records?
Resp: 110 % of control

Req: Please look up its Activity at Protein Kinase Assays (% of control), EphB2(h): `CN(C)c1cc2cc(n1)CCCn1cc(c3ccccc31)C1=C(C(=O)NC1=O)c1cn(c3ccccc13)CCC2`
Resp: 114 % of control

---
Req: Given `CN(C)c1nc2ccc1CCCCn1cc(c3ccccc31)C1=C(C(=O)NC1=O)c1cn(c3ccccc13)CCC2` , state its recorded Activity at Protein Kinase Assays (% of control), EphB2(h).
Resp: 125 % of control

* * *

What Activity at Protein Kinase Assays (% of control), Flt3(h) was measured for each of the following?
- TESTED TARGET: Flt3(h) (Homo sapiens, UniProt P36888)
- Sequence (P36888 27-993): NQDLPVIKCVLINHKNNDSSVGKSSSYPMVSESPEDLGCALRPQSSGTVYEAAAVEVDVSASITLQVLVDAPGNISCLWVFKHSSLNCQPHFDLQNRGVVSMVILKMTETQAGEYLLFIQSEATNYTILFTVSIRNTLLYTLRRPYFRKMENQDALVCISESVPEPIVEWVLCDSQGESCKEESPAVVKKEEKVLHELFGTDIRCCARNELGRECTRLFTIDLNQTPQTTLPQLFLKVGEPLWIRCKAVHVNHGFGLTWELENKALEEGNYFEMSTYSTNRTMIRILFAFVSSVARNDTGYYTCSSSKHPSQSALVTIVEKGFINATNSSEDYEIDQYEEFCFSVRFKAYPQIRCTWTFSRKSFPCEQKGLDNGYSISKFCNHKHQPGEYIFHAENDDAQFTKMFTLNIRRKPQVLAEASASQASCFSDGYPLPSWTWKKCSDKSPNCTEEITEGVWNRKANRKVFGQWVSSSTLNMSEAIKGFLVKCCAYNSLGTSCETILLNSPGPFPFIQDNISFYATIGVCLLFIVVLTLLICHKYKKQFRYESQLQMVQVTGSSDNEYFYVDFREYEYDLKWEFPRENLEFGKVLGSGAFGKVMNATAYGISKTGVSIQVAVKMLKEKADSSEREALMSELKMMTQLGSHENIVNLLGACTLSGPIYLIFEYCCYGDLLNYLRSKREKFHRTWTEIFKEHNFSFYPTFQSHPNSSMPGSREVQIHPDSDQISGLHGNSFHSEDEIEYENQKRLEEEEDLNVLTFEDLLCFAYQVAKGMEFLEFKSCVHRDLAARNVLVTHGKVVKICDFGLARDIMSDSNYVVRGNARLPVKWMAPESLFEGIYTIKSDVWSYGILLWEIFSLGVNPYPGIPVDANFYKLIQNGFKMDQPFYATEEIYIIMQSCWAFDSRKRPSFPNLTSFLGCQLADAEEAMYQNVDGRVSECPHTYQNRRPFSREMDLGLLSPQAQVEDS
- PROCEDURE DETAILS: Protein kinase selectivity panel
- Assay type: biochemical
- ASSAY SETUP: 1.0 μM compound, 10 μM ATP

Example entries begin here.
Req: Could you share which Activity at Protein Kinase Assays (% of control), Flt3(h) value was measured for `CN(C)c1nc2ccc1CCCCn1cc(c3ccccc31)C1=C(C(=O)NC1=O)c1cn(c3ccccc13)CCC2` ?
Resp: 86 % of control

Req: So what does the record say about Activity at Protein Kinase Assays (% of control), Flt3(h) for `O=C1NC(=O)C2=C1c1cn(c3ccccc13)CCCc1cc(nc(N3CCCC3)c1)CCCn1cc2c2ccccc21` ?
Resp: 77 % of control

I have 2 compounds here; please give me Activity at Protein Kinase Assays (% of control), Flt3(h) for each one.
1. O=C1NC(=O)C2=C1c1cn(c3ccccc13)CCCc1ccc(c(N3CCCC3)n1)CCCn1cc2c2ccccc21
2. CN(C)c1cc2cc(n1)CCCn1cc(c3ccccc31)C1=C(C(=O)NC1=O)c1cn(c3ccccc13)CCC2

Resp:
["85 % of control", "71 % of control"]

* * *

- TESTED TARGET: PKA(h) (Homo sapiens)
- PROCEDURE DETAILS: Protein kinase selectivity panel
- Assay type: biochemical
- ASSAY SETUP: 1.0 μM compound, 10 μM ATP
- Experimental: Protein kinase selectivity assays were performed as described in the scientific literature (Davies, S. P., et al., Biochem. J. 2000, 351, 95-105). Briefly, protein kinases were assayed for their ability to phosphorylate the appropriate peptide/protein substrates in the presence of 1.0 μM compound. Assays were done using 10 μM ATP and were linear with respect to time. […]
PROPERTY LABEL: Activity at Protein Kinase Assays (% of control), PKA(h)

Examples from the recorded data:
Req: What measured Activity at Protein Kinase Assays (% of control), PKA(h) goes with `O=C1NC(=O)C2=C1c1cn(c3ccccc13)CCCc1ccc(c(N3CCCC3)n1)CCCn1cc2c2ccccc21` ?
Resp: 102 % of control

Req: May I ask what Activity at Protein Kinase Assays (% of control), PKA(h) has been recorded for `CN(C)c1cc2cc(n1)CCCn1cc(c3ccccc31)C1=C(C(=O)NC1=O)c1cn(c3ccccc13)CCC2` ?
Resp: 95 % of control

Req: Returns the measured Activity at Protein Kinase Assays (% of control), PKA(h) for the input molecule. Input: `CN(C)c1nc2ccc1CCCCn1cc(c3ccccc31)C1=C(C(=O)NC1=O)c1cn(c3ccccc13)CCC2`
Resp: 90 % of control

Please turn your attention to the following entry.
Req: GET /values?readout=Activity at Protein Kinase Assays (% of control), PKA(h)&item= `O=C1NC(=O)C2=C1c1cn(c3ccccc13)CCCc1cc(nc(N3CCCC3)c1)CCCn1cc2c2ccccc21`
Resp: 104 % of control

FYI, the data here is from patent US7759331B2.
